Data credit: patent US7473700B2

# tgt: COX-1 (Homo sapiens)
# Construct: host or cells: U-937 human lymphoma cells
# Sequence (P23219 24-599): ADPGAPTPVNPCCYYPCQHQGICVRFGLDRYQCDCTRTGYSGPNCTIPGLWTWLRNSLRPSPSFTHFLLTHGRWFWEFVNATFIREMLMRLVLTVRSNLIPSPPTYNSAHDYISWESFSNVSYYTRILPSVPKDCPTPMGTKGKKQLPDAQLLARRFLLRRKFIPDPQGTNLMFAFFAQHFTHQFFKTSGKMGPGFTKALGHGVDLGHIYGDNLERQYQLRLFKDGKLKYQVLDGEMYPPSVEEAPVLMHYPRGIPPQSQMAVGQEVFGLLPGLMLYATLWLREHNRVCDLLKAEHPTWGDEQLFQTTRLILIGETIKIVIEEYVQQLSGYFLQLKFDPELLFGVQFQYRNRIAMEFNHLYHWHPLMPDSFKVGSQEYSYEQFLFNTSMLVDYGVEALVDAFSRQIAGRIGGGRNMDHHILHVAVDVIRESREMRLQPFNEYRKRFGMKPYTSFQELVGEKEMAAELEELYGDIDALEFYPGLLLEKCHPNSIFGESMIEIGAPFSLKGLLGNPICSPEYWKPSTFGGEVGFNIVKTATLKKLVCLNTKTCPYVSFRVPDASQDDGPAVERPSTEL
# assay summary: Assay for the COX-1 inhibitory activity using U-937 (PGE2 inhibition)
# Type: cell-based
# measurement parameters: 1 μM test compound; U-937 human lymphoma cells; PGE2 after arachidonic acid; read-out: Cyclooxygenase (COX) Inhibition (%) COX-1 (1 μM)
recorded endpoint: inhibition at 1 µM (%)
Please state the figure in %; there is no need to write the unit.

INPUT: I have this compound here, C=CCOc1nc(-c2ccc(F)cc2)n(-c2ccc(S(N)(=O)=O)cc2)n1 , and I need its recorded inhibition at 1 µM.
OUTPUT: 26.4

INPUT: What value of measured inhibition at 1 µM is listed for CCCOc1nc(-c2ccc(OC)cc2)n(-c2ccc(S(N)(=O)=O)cc2)n1 ?
OUTPUT: 23.4

INPUT: Returns the measured inhibition at 1 µM for the input compound. Input: CCSc1nc(-c2ccccc2)n(-c2ccc(S(N)(=O)=O)cc2)n1
OUTPUT: 31.2

INPUT: Look at this compound and give its reported inhibition at 1 µM. NS(=O)(=O)c1ccc(-n2nc(O)nc2-c2ccc(F)cc2)cc1
OUTPUT: 19.5

INPUT: Entry C#CCOc1nc(-c2ccc(F)cc2)n(-c2ccc(S(N)(=O)=O)cc2)n1 has what inhibition at 1 µM?
OUTPUT: 27.2

INPUT: Record request: inhibition at 1 µM value, item CCOc1nc(-c2ccc(OC)cc2)n(-c2ccc(S(C)(=O)=O)cc2)n1
OUTPUT: 33.1

INPUT: // lookup inhibition at 1 µM for COc1ccc(-c2nc(OC)nn2-c2ccc(S(C)(=O)=O)cc2)cc1
OUTPUT: 22.6

INPUT: Query (compound): COc1ccc(-c2nc(O)nn2-c2ccc(S(C)(=O)=O)cc2)cc1 ; field requested: inhibition at 1 µM
OUTPUT: 13.2

INPUT: Sample NS(=O)(=O)c1ccc(-n2nc(OCc3ccccc3)nc2-c2ccccc2)cc1 — what was its inhibition at 1 µM?
OUTPUT: 21.4

INPUT: # query: inhibition at 1 µM of entry COc1nc(-c2ccc(F)cc2)n(-c2ccc(S(N)(=O)=O)cc2)n1
OUTPUT: 44.5

INPUT: Reported inhibition at 1 µM, compound C#CCOc1nc(-c2ccc(OC)cc2)n(-c2ccc(S(N)(=O)=O)cc2)n1 : ____
OUTPUT: 30.4

INPUT: Look up inhibition at 1 µM: CCOc1nc(-c2ccc(F)cc2)n(-c2ccc(S(N)(=O)=O)cc2)n1
OUTPUT: 21.4

INPUT: Reported inhibition at 1 µM, compound CCOc1nc(-c2ccc(OC)c(F)c2)n(-c2ccc(S(N)(=O)=O)cc2)n1 : ____
OUTPUT: 23.7
